These data points were gathered from PubChem BioAssay.

# test.description: PSAC antagonists in infected red cells, primary screen, cell-based, P. falciparum Indochina, OD700, 1 h (AID 1154)
# condition.summary: P. falciparum Indochina infected RBC osmotic lysis, called active from +8 up or from −8 down
Calls of active or inactive are those of the source.
Give your call using only these classes: active, inactive

Below are worked cases with known answers.
[
  {
    "compound": "O=C(CS)NCCCCCNC(=O)[C@@H]1C[C@@H]2C(=O)N3CCC[C@H]3C(=O)N2[C@@H]1c1cccc(OCCO)c1",
    "class.label": "inactive"
  },
  {
    "compound": "[N-]=[N+]=NCc1ccccc1C[C@@]1(C(=O)N2CCCCC2)N=C(c2ccc(OCCCO)cc2)O[C@@H]1c1ccccc1",
    "class.label": "active"
  },
  {
    "compound": "COc1cc2c(cc1OC)CN(C(=O)[C@@H]1[C@H]3C(=O)O[C@H](c4ccccc4)[C@H](c4ccccc4)N3[C@H](c3ccc(OCCO)cc3)[C@@]13C(=O)Nc1ccc(C#CC4(O)CCCCCC4)cc13)CC2",
    "class.label": "inactive"
  }
]

Req: Kindly provide the recorded test outcome for the following compound: COC(=O)[C@@]1(Cc2ccc(F)cc2)[C@H]2c3cc(C(=O)N(C)C)n(Cc4cc(F)cc5c4OCOC5)c3C[C@H]2CN1C(=O)c1ccccc1
Resp: inactive

Req: Kindly provide the recorded test outcome for the following compound: COCCOC(=O)N1C(=O)[C@@]2(c3cc(C#CC4(O)CCCCCC4)ccc31)[C@H](c1ccc(O)cc1)N1[C@H](c3ccccc3)[C@H](c3ccccc3)OC(=O)[C@H]1[C@@H]2C(=O)NC[C@H](O)c1ccccc1
Resp: inactive

Req: Kindly provide the recorded test outcome for the following compound: C[C@H]1NC(=O)[C@@]23C(=O)N[C@@H](Cc4ccccc4)C2[C@H](C)[C@@]2(C)O[C@H]2C3/C=C/C/C=C\CNC(=O)[C@H](Cc2ccccc2)NC1=O (stereo partly drawn)
Resp: inactive

---

Quick reference for composite z-score among some compounds
# Tested on: Human papillomavirus type 1a E7 protein (residues 1-88)
# test.description: HPV1a E7 small-molecule binders, primary screen, biochemical, small-molecule microarray, residues 1-88, 635 nm (AID 1129)
# condition.summary: small-molecule microarray binding, fluorescence 635 nm; higher = more signal
Give the figure only, with no unit attached.

[
  {
    "compound": "Cc1cc(C)c(C(O)C2C=CC3C(=O)NC(=O)C3N2Nc2ccc(Cl)cc2Cl)c(C)c1 (centres undefined)",
    "composite z-score": 1.22
  },
  {
    "compound": "O=C1N(Cc2ccccc2)c2ccccc2[C@@H]2OC(c3ccc(OCCCO)cc3)=N[C@]12Cc1ccccc1",
    "composite z-score": 1.24
  },
  {
    "compound": "CN1C(=O)C2C=CC(C(O)c3ccccn3)N(N(c3ccccc3)c3ccccc3)C2C1=O (centres undefined)",
    "composite z-score": 0.669
  }
]

Req: Could you share what composite z-score was measured for CC(=O)c1ccc(C(O)C2C=CC3C(=O)N(c4ccccc4)C(=O)C3N2Nc2ccc(C#N)cc2)cc1 (centres undefined) , tested on Human papillomavirus type 1a E7 protein (residues 1-88)?
Resp: 1.01

Req: Could you share what composite z-score was measured for COc1ccc([Si](C)(C)[C@H]2[C@H](CCO)O[C@@]3(C(=O)N(Cc4cccc(N5C(=O)COc6ccccc65)c4)c4ccccc43)[C@@H]2C)cc1 , tested on Human papillomavirus type 1a E7 protein (residues 1-88)?
Resp: -0.0131

Req: Could you share what composite z-score was measured for COC(=O)[C@@]1(Cc2ccc(OC)cc2)[C@H]2c3cc(C(=O)N4CCCC4)n(Cc4c(-c5ccccc5)noc4C)c3C[C@H]2CN1C(=O)c1ccccc1 , tested on Human papillomavirus type 1a E7 protein (residues 1-88)?
Resp: 1.27

Req: Could you share what composite z-score was measured for COCCOC(=O)N1C(=O)[C@@]2(c3cc(C#CC4=CCCCC4)ccc31)[C@H](C(N)=O)[C@H]1C(=O)O[C@H](c3ccccc3)[C@H](c3ccccc3)N1[C@@H]2c1ccccc1OCCO , tested on Human papillomavirus type 1a E7 protein (residues 1-88)?
Resp: 1.21

Req: Could you share what composite z-score was measured for C=CCN1C(=O)[C@@]2(O[C@@H](CCn3cc([C@H](O)c4ccccc4)nn3)[C@H]([Si](C)(C)c3ccc(OC)cc3)[C@H]2C)c2cc(N3CCC3=O)ccc21 , tested on Human papillomavirus type 1a E7 protein (residues 1-88)?
Resp: 1.09

Req: Could you share what composite z-score was measured for COCCOC(=O)N1C(=O)[C@@]2(c3cc(C#CC4=CCCCC4)ccc31)[C@H](c1ccccc1OCCO)N1[C@H](c3ccccc3)[C@H](c3ccccc3)OC(=O)[C@H]1[C@@H]2C(=O)Nc1nc2ccccc2s1 , tested on Human papillomavirus type 1a E7 protein (residues 1-88)?
Resp: 0.96

Req: Could you share what composite z-score was measured for C=C(C)c1cc2c(c(CCCCCC)n1)[Si](C(C)C)(C(C)C)OC2 , tested on Human papillomavirus type 1a E7 protein (residues 1-88)?
Resp: -1.15

Req: Could you share what composite z-score was measured for CC1CC/C=C\[C@H]2OC34C=CCN(C(C)C)C(=O)[C@H]3N(CCCCCCO)C(=O)[C@@H]4C2C(=O)O1 (some centres undefined) , tested on Human papillomavirus type 1a E7 protein (residues 1-88)?
Resp: -1.09

Req: Could you share what composite z-score was measured for O=C1N(Cc2ccccc2)Cc2ccccc2[C@@H]2OC(c3ccc(OCCCO)cc3)=N[C@]12CCS(=O)(=O)c1ccccc1 , tested on Human papillomavirus type 1a E7 protein (residues 1-88)?
Resp: 1.19

Req: Could you share what composite z-score was measured for COCCOC(=O)N1C(=O)[C@@]2(c3cc(C#Cc4ccc(OC)cc4)ccc31)[C@H](c1ccc(O)cc1)N1[C@H](c3ccccc3)[C@H](c3ccccc3)OC(=O)[C@H]1[C@@H]2C(=O)N1CCCCCCC1 , tested on Human papillomavirus type 1a E7 protein (residues 1-88)?
Resp: 1.11

Req: Could you share what composite z-score was measured for CCOC(=O)C[C@H]1[C@H](OC(=O)Cc2ccc3c(c2)OCO3)[C@@H](NC(=O)Cc2ccc(OC)cc2)c2cc(OCCCO)ccc2N1C(=O)c1ccc2ccccc2n1 , tested on Human papillomavirus type 1a E7 protein (residues 1-88)?
Resp: 0.383

---

# test.description: CREB reporter modulators under forskolin, primary screen, cell-based, PC12, CRE-LacZ reporter, forskolin-stimulated (AID 1146);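 further: PC12 cells with 6xCRE LacZ reporter stimulated by forskolin 10 µM; beta-galactosidase reporter signal reflecting CREB driven transcription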
# condition.summary: luminescence, 4.5 h, higher = more signal, called active from +8 up or from −8 down
parameter.measured: z-score
Give the figure only, with no unit attached.

Recorded z-score, per entry:
[
  {
    "molecule": "COC(=O)c1c2oc(c1C(=O)OC)C(=O)N(Cc1ccccc1)Cc1cn(nn1)C[C@H](Cc1ccccc1)NC(=O)N[C@H](CO)CC2",
    "z-score": -1.16
  },
  {
    "molecule": "COC(=O)[C@@]1(Cc2ccccc2)[C@H]2c3cc(C(=O)N(C)C)n(CCN4CNCC4=O)c3C[C@H]2CN1C(=O)c1ccccc1",
    "z-score": 0.547
  },
  {
    "molecule": "CN1C(=O)C2C=CC(C(O)c3ccccn3)N(N(c3ccccc3)c3ccccc3)C2C1=O (configuration not stated)",
    "z-score": -0.164
  },
  {
    "molecule": "CN1C(=O)C2C=CC(C(O)c3cccc4ccccc34)N(N3CCCCC3)C2C1=O (configuration not stated)",
    "z-score": 0.0556
  },
  {
    "molecule": "CO[C@H]1O[C@H](CO)[C@@H](OC(=O)Nc2ccccc2-c2ccccc2)[C@H](OC(=O)Nc2ccc3c(c2)OCO3)[C@H]1OC(=O)Nc1ccc2c(c1)OCO2",
    "z-score": -0.97
  },
  {
    "molecule": "COC(=O)[C@@]1(Cc2ccc(F)cc2)[C@H]2c3cc(C(=O)N(C)C)n(CCc4ccc(O)c(OC)c4)c3C[C@H]2CN1C(=O)c1ccccc1",
    "z-score": 0.15
  }
]

Req: Any idea what its z-score is? The molecule is COc1cc2c(cc1O)C(C)N(Cc1ccc([N+](=O)[O-])o1)CC2 (configuration not stated)
Resp: 1.6

---

# test.description: A549 lung cancer cell viability effects, profiling panel, resazurin fluorescence, 24 h, PK04 Diversity Set (AID 1171); further: test concentration not given here
# condition.summary: higher = more signal, called active from +8 up or from −8 down
parameter.measured: z-score
Give the figure only, with no unit attached.

[
  {
    "molecule": "COc1ccc([Si](C)(C)[C@@H]2[C@@H](CC(=O)N(CCO)Cc3ccccc3)O[C@]3(C(=O)N(Cc4cccc(N5C(=O)c6cccc7cccc5c67)c4)c4ccccc43)[C@H]2C)cc1",
    "z-score": -0.999
  },
  {
    "molecule": "C=CCOC(=O)[C@H]1[C@@H]2C(=O)O[C@@H](c3ccccc3)[C@@H](c3ccccc3)N2[C@@H](c2ccc(OCCOC(=O)[C@H]3C[C@H]4C(=O)N[C@@H](CCCCNC(C)=O)C(=O)N4[C@H]3c3ccc(O)cc3)cc2)[C@]12C(=O)Nc1ccccc12",
    "z-score": 2.07
  },
  {
    "molecule": "C=CCNC(=O)[C@H]1[C@@H]2C(=O)O[C@@H](c3ccccc3)[C@@H](c3ccccc3)N2[C@@H](c2ccc(O)cc2)[C@]12C(=O)Nc1ccc(C#CC3(O)CCCCCC3)cc12",
    "z-score": 0.421
  },
  {
    "molecule": "CN1C(=O)C2C=CC(C(O)c3cccc4ccccc34)N(N3CCCCC3)C2C1=O (stereo not drawn)",
    "z-score": 0.294
  },
  {
    "molecule": "CCCCCCCCCCC(O)C1C=CC2C(=O)N(C)C(=O)C2N1NC(=O)OC(C)(C)C (stereo not drawn)",
    "z-score": -3.67
  }
]

Req: Any idea what its z-score is? The molecule is O=C1NC(=O)C2C1C=CC(C(O)c1ccco1)N2Nc1ccccn1 (stereo not drawn)
Resp: -0.974

Req: Any idea what its z-score is? The molecule is CN(C)c1ccc(C(O)C2C=CC3C(=O)N(c4ccccc4)C(=O)C3N2Nc2ccc([N+](=O)[O-])cc2)cc1 (stereo not drawn)
Resp: -0.272

Req: Any idea what its z-score is? The molecule is CCOc1cc(C(O)C2C=CC3C(=O)N(C)C(=O)C3N2Nc2ccccc2)ccc1O (stereo not drawn)
Resp: -0.0004
